Origin of the recorded values: patent US20240158348A1

Entries and their Plant response rating (0 to 100 scale), Goosegrass values follow.
- System: goosegrass (Eleusine indica)
- ASSAY_SUMMARY: Test C preemergence, goosegrass
- Assay type: in vivo
- CONDITIONS: 31 g ai/ha Preemergence; 0 is no effect, 100 is complete control
REPORTED_METRIC: Plant response rating (0 to 100 scale), Goosegrass

>>> val("Cc1c(N2CCC(OC3CCC3)C2=O)cc(N(COC(=O)C(C)(C)C)S(=O)(=O)C(F)(F)F)c(C)c1F (centres unmarked)")
70
>>> val("Cc1c(N2CCC(OC3CC3)C2=O)cc(N(COC(=O)C(C)(C)C)S(=O)(=O)C(F)(F)F)c(C)c1C (centres unmarked)")
60
>>> val("Cc1cc(C)c(N2CCC(OCC3CCCO3)C2=O)cc1NS(=O)(=O)C(F)(F)F (centres unmarked)")
50
>>> val("C=C(C)COC1CCN(c2cc(NS(=O)(=O)C(F)(F)F)c(C)cc2C)C1=O (centres unmarked)")
90
>>> val("Cc1cc(C)c(N2CCC(OC3COC3)C2=O)cc1NS(=O)(=O)C(F)(F)F (centres unmarked)")
30
>>> val("Cc1c(NS(=O)(=O)C(F)(F)F)cc(N2CCC(OC3CCC3)C2=O)c(C)c1C (centres unmarked)")
100
>>> val("CCCC(=O)OCN(c1cc(N2CCC(OC3CC3)C2=O)c(C)cc1C)S(=O)(=O)C(F)(F)F (centres unmarked)")
100
>>> val("Cc1c(N2CCC(OC3CC3)C2=O)cc(N(C(=O)OCC(C)C)S(=O)(=O)C(F)(F)F)c(C)c1C (centres unmarked)")
90

====

The entries below come with measured Corn plant response rating values attached.
- Tested on: corn (Zea mays)
- ASSAY_SUMMARY: Test C postemergence, corn
- Type: in vivo
- CONDITIONS: 31 g ai/ha Postemergence; visual injury, 0 to 100 scale (0 no effect, 100 complete control)
REPORTED_METRIC: Corn plant response rating

>>> val("Cc1cc(C)c(N(COC(=O)C(C)(C)C)S(=O)(=O)C(F)(F)F)cc1N1CCC(OCC2CC2(F)F)C1=O (stereo not shown)")
0
>>> val("Cc1c(N2CCC(OC3CC3)C2=O)cc(N(C(=O)OCC(C)C)S(=O)(=O)C(F)(F)F)c(C)c1C (stereo not shown)")
30
>>> val("CCOC(=O)N(c1cc(N2CCC(OC3CC3)C2=O)c(C)cc1C)S(=O)(=O)C(F)(F)F (stereo not shown)")
0
>>> val("Cc1cc(C)c(N2CC/C(=N\\O)C2=O)cc1NS(=O)(=O)C(F)(F)F")
90

====

Plant response rating, Oat, Wild reference
- Test system: oat, wild (wild oat, Avena fatua)
- ASSAY_SUMMARY: Test A postemergence, wild oat
- Type: in vivo
- CONDITIONS: 125 g ai/ha, 0 to 100 scale, 10 days
REPORTED_METRIC: Plant response rating, Oat, Wild

>>> val("Cc1cc(C)c(N(COC(=O)C(C)(C)C)S(=O)(=O)C(F)(F)F)cc1N1CCC(OC2CCCC2)C1=O (stereo not drawn)")
30
>>> val("Cc1cc(C)c(N(COC(=O)C(C)(C)C)S(=O)(=O)C(F)(F)F)cc1N1CCC(OC2CCC2)C1=O (stereo not drawn)")
30
>>> val("Cc1cc(C)c(N(COC(=O)C(C)(C)C)S(=O)(=O)C(F)(F)F)cc1N1CCC(OC2CC2)C1=O (stereo not drawn)")
70
>>> val("Cc1cc(C)c(N2CCC(OC3CCC3)C2=O)cc1NS(=O)(=O)C(F)(F)F (stereo not drawn)")
60
>>> val("Cc1cc(C)c(N2CCC(OC3CC3)C2=O)cc1NS(=O)(=O)C(F)(F)F (stereo not drawn)")
80
>>> val("Cc1cc(C)c(N2CCC(OC3CCCC3)C2=O)cc1NS(=O)(=O)C(F)(F)F (stereo not drawn)")
20
